pIC50 values for the molecules below.
Target: Tyrosyl-DNA phosphodiesterase 1 (Homo sapiens)
Sequence (Q9NUW8 whole entry): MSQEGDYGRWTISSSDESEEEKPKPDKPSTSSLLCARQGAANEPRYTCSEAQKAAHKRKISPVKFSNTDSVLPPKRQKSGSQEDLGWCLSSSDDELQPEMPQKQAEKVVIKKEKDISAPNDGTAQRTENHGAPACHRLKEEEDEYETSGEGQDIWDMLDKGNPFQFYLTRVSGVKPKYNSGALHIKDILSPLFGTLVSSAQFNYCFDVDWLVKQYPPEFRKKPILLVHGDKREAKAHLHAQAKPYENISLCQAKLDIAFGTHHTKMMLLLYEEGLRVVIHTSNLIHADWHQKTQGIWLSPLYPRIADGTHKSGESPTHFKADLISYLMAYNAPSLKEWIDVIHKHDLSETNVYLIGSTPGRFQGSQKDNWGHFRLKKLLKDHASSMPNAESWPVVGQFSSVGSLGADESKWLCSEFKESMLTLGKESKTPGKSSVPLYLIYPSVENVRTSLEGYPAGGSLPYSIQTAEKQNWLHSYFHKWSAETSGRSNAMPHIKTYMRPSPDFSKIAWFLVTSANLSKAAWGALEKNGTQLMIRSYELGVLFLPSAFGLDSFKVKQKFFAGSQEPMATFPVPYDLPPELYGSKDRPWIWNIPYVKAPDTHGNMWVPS
Test: Inhibition of recombinant Tdp1 (unknown origin) assessed as decrease in hydrolysis of phosphodiester linkage between tyrosine residue and the 3' end of 5'-[32P]-DNA after 15 mins by PAGE analysis
pIC50: −log10 of the molar value.

{"smiles str": "COc1cnc2c(c1)C(=O)c1c-2n(CCCNC2=NCCS2)c(=O)c2cc([N+](=O)[O-])ccc12", "pIC50": "4.92 to 6.00"}
{"smiles str": "CCNCCCn1c2c(c3ccc([N+](=O)[O-])cc3c1=O)C(=O)c1cc(OC)cnc1-2", "pIC50": "4.92 to 6.00"}
{"smiles str": "COc1cnc2c(c1)C(=O)c1c-2n(CCCN2CCC(N)CC2)c(=O)c2cc([N+](=O)[O-])ccc12", "pIC50": "4.92 to 6.00"}
{"smiles str": "COc1cnc2c(c1)C(=O)c1c-2n(CCCN2CCNCC2)c(=O)c2cc([N+](=O)[O-])ccc12", "pIC50": "4.43 to 4.92"}
